Source listed as PubChem BioAssay.

Give measured inhibition of aggregation for each item. Keep answers brief.
Test: inhibitors of mutant huntingtin aggregation, primary screen, imaging, exon1htt(103Q)mCFP cells, high-content imaging (AID 483);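 further: compound exposure lasted 3 days before fixation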
Conditions: exon1htt(103Q)mCFP cell line, aggregate imaging, at 2 µM; hits give high values
Answers are plain numbers, in %.

The examples below pair each entry with its known result.
IN: Look at this compound and give its reported inhibition of aggregation. O=C(O)Cc1cc(I)c(Oc2ccc(O)c(I)c2)c(I)c1
OUT: 12.4

IN: Look at this compound and give its reported inhibition of aggregation. CCN(CC)c1ccc(-c2nn3c(-c4cccnc4)nnc3s2)cc1
OUT: -31.1

IN: Look at this compound and give its reported inhibition of aggregation. Nc1nc(Cl)nc2c1ncn2[C@@H]1O[C@H](CO)[C@@H](O)[C@H]1O
OUT: 16.9

IN: Look at this compound and give its reported inhibition of aggregation. CN(C)CCN(Cc1ccccc1)c1ccccn1
OUT: 18.7

IN: Look at this compound and give its reported inhibition of aggregation. CCCc1c(OCCCCc2nn[nH]n2)ccc(C(C)=O)c1O
OUT: -9.3

IN: Look at this compound and give its reported inhibition of aggregation. COc1ccc(C2(CN(C(C)=O)C(C)=O)CCCC2)cc1OC
OUT: 6.8

IN: Look at this compound and give its reported inhibition of aggregation. CCC(NC(C)C)C(O)c1ccc(O)c2[nH]c(=O)ccc12 (centres undefined)
OUT: -11.3

IN: Look at this compound and give its reported inhibition of aggregation. Fc1ccc(-c2cnc[nH]2)cc1
OUT: -41

// for each compound below, give its inhibition of aggregation
1. COc1ccc(C2CC(=O)C(C=NCCN3CCOCC3)=C(O)C2)cc1 (centres undefined)
2. Cc1cc(OCC(=O)Nc2ccc3oc(-c4ccncc4)nc3c2)ccc1Cl
3. Cc1ccc(S(=O)(=O)NC(=O)NN2CCCCCC2)cc1
4. Cc1[nH]nc2c1C(CCc1ccccc1)C(C#N)=C(N)O2 (centres undefined)
5. CCOc1cc(C2Nc3ccccc3C(=O)N2c2ccccc2OC)ccc1O (centres undefined)

OUT:
1: 0.1; 2: -19.2; 3: 0; 4: -13.6; 5: -2.3
